The values you see were collected from patent US20240391954A1.

Below, each entry is listed alongside its reported MC4R selectivity vs MC1R.
- study_system: human MC1R (Homo sapiens, UniProt Q01726)
- Construct: expressed in transfected cells; host or cells: HEK-293 cells stably expressing hMC1R and the GScAMP22F cAMP sensor
- Sequence (Q01726 whole entry): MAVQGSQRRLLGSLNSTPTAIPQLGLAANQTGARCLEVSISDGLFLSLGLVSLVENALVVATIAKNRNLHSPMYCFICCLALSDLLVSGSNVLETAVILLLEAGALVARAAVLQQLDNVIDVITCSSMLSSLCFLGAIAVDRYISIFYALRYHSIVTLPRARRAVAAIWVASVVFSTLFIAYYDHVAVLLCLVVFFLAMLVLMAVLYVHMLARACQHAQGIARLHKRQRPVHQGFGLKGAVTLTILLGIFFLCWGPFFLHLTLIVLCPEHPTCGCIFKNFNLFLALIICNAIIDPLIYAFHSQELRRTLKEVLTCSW
- assay_explanation: split-luciferase cAMP sensor assay, agonist mode, hMC1R
- Type: cell-based
- assay_setup: MC4R versus MC1R
Positions of bridges follow the written chain, without caps; N, C: chain ends. Non-standard residues stand in square brackets, D forms with d. Residues, ends and D or L forms follow the SMILES beside them. 2Pal = N[C@@H](Cc1ccccn1)C(=O)O; 4Pal = N[C@@H](Cc1ccncc1)C(=O)O; Aib = CC(C)(N)C(=O)O
// return a plain number; no unit text

>>> reported("CC(=O)N[C@@H](CCCNC(=N)N)C(=O)N[C@H]1CSSC[C@@H](C(N)=O)NC(=O)[C@H](Cc2ccccc2)NC(=O)[C@H](CCCNC(=N)N)NC(=O)[C@@H](Cc2ccccc2)NC(=O)[C@H](Cc2ccccn2)NC(=O)C(C)(C)NC1=O [CTX-1604] (Ac-RC[Aib][2Pal][dF]RFC-NH2; disulfide 2-8 (inferred))")
3.66
>>> reported("CC(=O)N[C@@H](CCCNC(=N)N)C(=O)N[C@H]1CSSC[C@@H](C(N)=O)NC(=O)[C@@H](Cc2ccccc2)NC(=O)[C@H](CCCNC(=N)N)NC(=O)[C@@H](Cc2ccccc2)NC(=O)[C@H](CCCNC(=N)N)NC(=O)[C@@H](C)NC1=O [CTX-1265] (Ac-RC[dA]R[dF]R[dF]C-NH2; disulfide 2-8 (inferred))")
0.02

Okay, next one:
In: Report MC4R selectivity vs MC1R for CC(=O)N[C@@H](CCCNC(=N)N)C(=O)N[C@H]1CSSC[C@@H](C(N)=O)NC(=O)[C@H](Cc2ccccc2)NC(=O)[C@H](CCCNC(=N)N)NC(=O)[C@@H](Cc2ccccc2)NC(=O)[C@H](Cc2ccncc2)NC(=O)C(C)(C)NC1=O [CTX-1606] (Ac-RC[Aib][4Pal][dF]RFC-NH2; disulfide 2-8 (inferred)) please.
Out: 2.99
